Where do the numbers come from? From patent US20210024483A1.

Measured on: GPR40 (UniProt O14842)
Assay overview: GPR40 Calcium Flux Assay
Cond: transfected HEK293 cells stably expressing human or rat GPR40; species not given
Quantity kind: EC50

Guide cases for EC50, answers given:
| Compound | Measured on | EC50 |
| --- | --- | --- |
| CCCCCCC1=C(COc2ccc(CCC(=O)O)c(C(F)(F)F)c2)COCC1 | GPR40 (UniProt O14842) | 1020 nM |
| C=C(C1=C(COc2ccc(CCC(=O)O)cc2)COCC1)c1ccc(F)cc1 | GPR40 (UniProt O14842) | 1560 nM |
| O=C(O)CCc1cc(F)c(OCC2=C(C3CCCC3)CCOC2)c(F)c1 | GPR40 (UniProt O14842) | > 10000 nM |
| O=C(O)CCc1ccc(OCC2=C(C3CCCC3)CCOC2)cc1 | GPR40 (UniProt O14842) | 2680 nM |
| Cc1ccc(C2=C(COc3ccc(CCC(=O)O)cc3)CCOCC2)cc1F | GPR40 (UniProt O14842) | 7880 nM |
| O=C(O)CCc1ccc(OCC2=C(C3CCCCC3)CCOC2)cc1C(F)(F)F | GPR40 (UniProt O14842) | 847 nM |

Per the record, Cc1ccc(CC2=C(COc3ccc(CCC(=O)O)cc3)COCC2)cc1 has EC50 of 3620 nM

Per the record, O=C(O)CCc1ccc(OCC2=C(Cc3ccc(Cl)cc3)CCOC2)cc1C(F)(F)F has EC50 of 218 nM

Per the record, O=C(O)CCc1cc(F)c(OCC2=C(Cc3ccc(Cl)cc3)CCOC2)c(F)c1 has EC50 of > 10000 nM
